Sourced from paper PMC8222333

- system: d-enCas12a-Ultra (Acidaminococcus sp., UniProt U2UMQ6 1-1307, E174R;S542R;K548R;M537R;F870L;D908A;E993A;D1235A)
- protocolText: Spec-seq (native PAGE EMSA with sequencing of bound and unbound); 25 mM Tris-HCl pH 7.4, 150 mM KCl, 5 mM MgCl2, 10% glycerol, 1 mM DTT, 40 ng/uL salmon sperm DNA; 400 nM Cas12a, 480 nM crRNA, 50 nM library, 37 C 1 h; native PAGE at room temperature; high values mean tight binding;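 also: relative affinity from the bound to unbound sequence frequency ratio in Spec-seq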
- reportedConditions: protein: recombinant
Entries and their binding signal
Note: unit lnKA is implicit; provide only the numeric part.

binder	binding signal / lnKA
CTTG (dsDNA) DNA 1: GCTATCTAGTGCTCAGTACGCACTGCTTGAGGAAACTTCTGGCAGGACCAGGTCATGAGATCGGAAGAGCACACGTCTGAACTCCAGTCA DNA 2: TGACTGGAGTTCAGACGTGTGCTCTTCCGATCTCATGACCTGGTCCTGCCAGAAGTTTCCTCAAGCAGTGCGTACTGAGCACTAGATAGC RNA: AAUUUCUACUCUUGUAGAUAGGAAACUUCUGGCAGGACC	-0.41

// next item, binding signal requested
[in] Please look up its binding signal: AGAG (dsDNA) DNA 1: GCTATCTAGTGCTCAGTACGCACTGAGAGAGGAAACTTCTGGCAGGACCAGGTCATGAGATCGGAAGAGCACACGTCTGAACTCCAGTCA DNA 2: TGACTGGAGTTCAGACGTGTGCTCTTCCGATCTCATGACCTGGTCCTGCCAGAAGTTTCCTCTCTCAGTGCGTACTGAGCACTAGATAGC RNA: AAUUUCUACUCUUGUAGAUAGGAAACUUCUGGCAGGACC
[out] -3.32
